Below is a list of entries, each paired with its recorded OD (450 nm) value.
Target: T1, human TIGIT-Fc (human, UniProt Q495A1 22-141, limits assumed)
T1 construct: not shown: Fc; not described
T1 sequence (looked up): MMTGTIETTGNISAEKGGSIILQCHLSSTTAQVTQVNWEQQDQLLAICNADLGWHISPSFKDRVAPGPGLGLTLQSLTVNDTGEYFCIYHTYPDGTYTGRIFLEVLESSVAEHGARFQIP
Assay: CD155 competition ELISA, single point; also: test concentration or dose not given here

| binder | unitLabel | OD (450 nm) |
| --- | --- | --- |
| TIGIT-SC146 (Fc fusion, VHH-Fc) VHH: EVQLVESGGGLVQPGGGLRLSCAASGFTLENNMMGWFRQAPGKEREFVAAISASGTLRAYADSVKGRFTISADNSKNTAYLQMNSLKPEDTAVYYCAKGGQAGPMAFYFDYWGQGTLVTVSS | OD | 0.423 |
| TIGIT-SC30 (Fc fusion, VHH-Fc) VHH: EVQLVESGGGLVQPGGSLRLSCAASGRSFSSDWIGWFRQAPGKERELVAAIDWSGGSALYADSVKGRFTISADNSKNTAYLQMNSLKPEDTAVYYCARVNWNNVGWFDPWGQGTLVTVSS | OD | 0.495 |
